Entry source: PubChem BioAssay (EPA / NIEHS)

assay.protocol: APR_HepG2_MitoMembPot_72hr: Apredica 72-hour HepG2 Assay for Mitochondrial Membrane Potential (AID 2282917)
settings: imaging, actives raise or lower the signal
Procedure: APR_HepG2_72hr is a cell-based, multiplexed-readout assay that uses HepG2, a human liver cell line, with measurements taken at 72 hours after chemical dosing in a 384-well plate.APR_HepG2_MitoMembPot_72hr is one of 10 assay component(s) measured or calculated from the APR_HepG2_72hr assay. […] This assay endpoint, APR_HepG2_MitoMembPot_72hr, was analyzed with bidirectional fitting relative to DMSO as the negative control and baseline of activity. […]
The source made the active and inactive calls. How the source made its calls: active means hit-call score of the fitted dose curve at least 0.9, where 1 is the maximum; inactive means score below 0.9.
Labels: active, inactive

smiles_str=CCc1c(C(=O)NN2CCCCC2)nn(-c2ccc(Cl)cc2Cl)c1-c1ccc(Br)cc1 class_assignment=active
smiles_str=O=c1c(O)c(-c2ccc(O)c(O)c2)oc2cc(O)cc(O)c12 class_assignment=inactive
smiles_str=CC=Cc1ccc(O)c(OC)c1 class_assignment=inactive
smiles_str=O=C(O)Cc1ccccc1Nc1c(Cl)cccc1Cl class_assignment=inactive
smiles_str=C[C@]12C=CC(=O)C=C1CC[C@@H]1[C@@H]2C(=O)C[C@@]2(C)[C@H]1CC[C@]2(O)C(=O)CO class_assignment=inactive
smiles_str=CC1=C(/C=C/C(C)=C/C=C/C(C)=C/CO)C(C)(C)CCC1 class_assignment=inactive

====

assay.protocol: ACEA_AR_antagonist_AUC_viability: ACEA Biosciences xCELLigence Real-Time Cell Analysis on Androgen Receptor Antagonism for Viability (AID 2283776);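 further: 22Rv1 human prostate cancer cells growing on impedance electrode plates; area under impedance growth curve at 80 h after dosing as viability; hits lower the growth signal relative to DMSO meaning cytotoxicity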
Results filed as inconclusive are left out. The source made the active and inactive calls. How the source made its calls: active means hit-call score of the fitted dose curve at least 0.9, where 1 is the maximum; inconclusive means response in the unintended direction; inactive means score below 0.9.
Labels: active, inactive

smiles_str=Cc1cccc([N+](=O)[O-])c1C class_assignment=inactive
smiles_str=CCc1c(C(=O)NN2CCCCC2)nn(-c2ccc(Cl)cc2Cl)c1-c1ccc(Br)cc1 class_assignment=active
smiles_str=C=CCc1ccc(O)c(OC)c1 class_assignment=inactive
smiles_str=NC(=O)Cn1c(=O)cc(CCN2CCN(c3nccc4sccc34)CC2)c2ccc(F)cc21 class_assignment=active
smiles_str=Cc1ccc(N(C)C)cc1 class_assignment=inactive
smiles_str=COc1ccc(S(=O)(=O)N2C(=O)[C@@](c3ccccc3OC)(N3C[C@H](O)C[C@H]3C(=O)N(C)C)c3cc(Cl)ccc32)c(OC)c1 class_assignment=active
smiles_str=COc1cc(-c2nc(NC(=O)c3cc4cc(C)cc(C)c4n3CC(=O)O)sc2CCC2CCCCC2)c(OC)cc1Cl class_assignment=active
smiles_str=CN[C@H]1CC[C@@H](c2ccc(Cl)c(Cl)c2)c2ccc(S(N)(=O)=O)cc21 class_assignment=active
smiles_str=C[Si]1(C)O[Si](C)(C)O[Si](C)(C)O[Si](C)(C)O1 class_assignment=inactive
smiles_str=Oc1ccc2c(c1)OC[C@@H](N1CCC(O)(c3ccc(F)cc3)CC1)[C@H]2O class_assignment=inactive

====

measured.on: Estrogen receptor (Homo sapiens)
assay.protocol: NVS_NR_hER: NovaScreen (NVS) Nuclear Receptor Binding Assay for human Estrogen Receptor (ER) (AID 2283348)
Results filed as inconclusive are left out. Activity calls are given as the source filed them. The calls were made as follows: active = hit-call score of the fitted dose curve at least 0.9, where 1 is the maximum; inconclusive = response in the unintended direction; inactive = score below 0.9.
Classes used: active, inactive

molecule="CCCCC(CC)COC(=O)CC(C(=O)OCC(CC)CCCC)S(=O)(=O)O (stereo unspecified)" measured_on="Estrogen receptor (Homo sapiens)" class_assignment=inactive
molecule=COc1ccc2c(c1)c(CC(=O)O)c(C)n2C(=O)c1ccc(Cl)cc1 measured_on="Estrogen receptor (Homo sapiens)" class_assignment=inactive
molecule=O=c1c(O)c(-c2ccc(O)c(O)c2)oc2cc(O)cc(O)c12 measured_on="Estrogen receptor (Homo sapiens)" class_assignment=inactive
molecule="Cc1nc(-c2ccc3c(c2)CCN(CCC2CCC(NC(=O)/C=C/c4ccc(F)cc4)CC2)CC3)no1 (stereo unspecified)" measured_on="Estrogen receptor (Homo sapiens)" class_assignment=inactive
molecule=C[C@]12C=CC(=O)C=C1CC[C@@H]1[C@@H]2C(=O)C[C@@]2(C)[C@H]1CC[C@]2(O)C(=O)CO measured_on="Estrogen receptor (Homo sapiens)" class_assignment=inactive
molecule=CCOc1ccc2c(c1)C(C)=CC(C)(C)N2 measured_on="Estrogen receptor (Homo sapiens)" class_assignment=active
molecule=CCCCCCCCCCCCCCCCCC(=O)O measured_on="Estrogen receptor (Homo sapiens)" class_assignment=active
molecule=Nc1ccc2c(c1)C(=O)c1ccccc1C2=O measured_on="Estrogen receptor (Homo sapiens)" class_assignment=inactive
molecule=O=C(O)Cc1ccccc1Nc1c(Cl)cccc1Cl measured_on="Estrogen receptor (Homo sapiens)" class_assignment=inactive
molecule=Cc1oc(-c2ccccc2)nc1CCOc1cccc2c1ccn2CCC(=O)O measured_on="Estrogen receptor (Homo sapiens)" class_assignment=inactive
molecule=CC1=C(/C=C/C(C)=C/C=C/C(C)=C/CO)C(C)(C)CCC1 measured_on="Estrogen receptor (Homo sapiens)" class_assignment=inactive
